Test system: genotype-1a variant with glutamine 30 changed to glutamate in the NS5A protein
method notes: HCV replicon cell-based assay, NS5A synergy with BMS-790052
stated conditions: genotype 1a Q→E variant; test compound titrated in combination with NS5A-targeting compound (BMS-790052 fixed at 200 nM)
Below is a list of entries, each paired with its recorded Fold Synergistic (1a-QE) value.

Take a look at these entries with their results.
>  <compound>
CC(C)(C)C(C(=O)N1CCCC1)c1ncc(-c2ccc(-c3ccc(-c4cnc(C(C(=O)N5CCCC5)C(C)(C)C)[nH]4)cc3)cc2)[nH]1 (centres unmarked)

>  <Fold Synergistic (1a-QE)>
<10 Fold

$$$$
>  <compound>
CC(C)[C@H](CC(=O)N1CCN(c2ccccc2)C(=O)C1)c1ncc(-c2ccc(-c3ccc(-c4cnc([C@@H](CC(=O)N5CCN(c6ccccc6)C(=O)C5)C(C)C)[nH]4)cc3)cc2)[nH]1

>  <Fold Synergistic (1a-QE)>
<10 Fold

$$$$
>  <compound>
CC(C)CNC(=O)[C@@H]1OC(C)(C)O[C@H]1c1ncc(-c2ccc(-c3ccc(-c4cnc([C@@H]5OC(C)(C)O[C@H]5C(=O)NCC(C)C)[nH]4)cc3)cc2)[nH]1

>  <Fold Synergistic (1a-QE)>
<10 Fold

$$$$
>  <compound>
CC(C)[C@H](CC(=O)NCC1(c2ccccc2)CCCCC1)c1ncc(-c2ccc(-c3ccc(-c4cnc([C@@H](CC(=O)NCC5(c6ccccc6)CCCCC5)C(C)C)[nH]4)cc3)cc2)[nH]1

>  <Fold Synergistic (1a-QE)>
>100 Fold

$$$$

Form field: Fold Synergistic (1a-QE) recorded for "CC(C)[C@H](CC(=O)NCC1(O)CCC1)c1ncc(-c2ccc(-c3ccc(-c4cnc([C@@H](CC(=O)NCC5(O)CCC5)C(C)C)[nH]4)cc3)cc2)[nH]1" with genotype-1a variant with glutamine 30 changed to glutamate in the NS5A protein (enter value) >10 Fold
